Recorded values, source ChEMBL document CHEMBL1132661.

PROTOCOL DETAILS: Significant mortality was observed in mice caused by the compound
Type: ADME
TEST CONDITIONS: mouse, in vivo
MEASURED ATTRIBUTE: LD50 (mg/kg)
Give the quantity in mg/kg, number only.

### Prompt Give the value of LD50 reported for the following: COc1ccc2c(c1)C13CCCCC1C(C2)N(C)CC3 (stereo not drawn) [RACEMETHORPHAN]
### Response 234

====

Test system: Mus musculus
PROTOCOL DETAILS: Anticonvulsant activity in mice by intraperitoneal administration measured at 30 mins before maximum electroshock seizure induction
Format: functional
TEST CONDITIONS: ip
Listing: ED50 of selected compounds
Give the quantity in mg/kg, number only.

{"COMPOUND": "CS(=O)(=O)O.C[C@H](NCc1ccc(OCc2cccc(F)c2)cc1)C(N)=O [SAFINAMIDE MESYLATE]", "UNIT SPEC": "mg/kg", "ED50": 6.9}
{"COMPOUND": "CNC(=O)[C@@H](C)N1CCC23CCCCC2[C@@H]1Cc1ccc(OCc2cccc(F)c2)cc13 (some centres undefined)", "UNIT SPEC": "mg/kg", "ED50": 41.6}
{"COMPOUND": "COc1ccc2c(c1)C13CCCCC1C(C2)N(C)CC3 (stereo not drawn) [RACEMETHORPHAN]", "UNIT SPEC": "mg/kg", "ED50": 10.1}

### Prompt Give the value of ED50 reported for the following: C[C@H](C(N)=O)N1CCC23CCCCC2[C@@H]1Cc1ccc(OCc2cccc(F)c2)cc13 (some centres undefined)
### Response 18.1
